Reported cell viability values for a set of compounds
# System: Vero E6
# test-method-notes: cell viability relative to DMSO; higher = less toxic
# condition-notes: 72 h; 10 nM
# unit: % | format: bare number

Some solved entries appear below for comparison.
compound: Nc1ccc(C(=O)Nc2cccc(-c3nc(N4CCOCC4)c4oc5ncccc5c4n3)c2)cn1
cell viability, %: 100
--
compound: CCn1c(=O)n(C2=C(CO)CN(CC3CCCCCCC3)CC2)c2ccccc21 [trap-101]
cell viability, %: 96.8
--
compound: C#C[C@]1(O)CC[C@H]2[C@@H]3CCc4cc(OC5CCCC5)ccc4[C@H]3CC[C@@]21C [quinestrol]
cell viability, %: 104

Asked: Dear colleague, I am looking for the recorded cell viability of the following compound: Cc1c(F)cc(C(=O)NC2CC2)cc1-c1c(F)cn2c(C(C)(C)C)nnc2c1F [AL-8697]
Given back: 100

###

The entries below are paired with their reported cell viability.
# Test system: U2OS
# test-method-notes: cell viability relative to DMSO; higher = less toxic
# condition-notes: 72 h; 10 nM
Please state the figure in %; there is no need to write the unit.

Some solved entries appear below for comparison.
molecule: CCOC(=O)Nc1ccc2c(c1)N(C(=O)CN(C)C)c1ccccc1CC2
system-name: U2OS
value-unit: %
measurement: 104
//
molecule: Oc1cc(Cl)ccc1Oc1ccc(Cl)cc1Cl
system-name: U2OS
value-unit: %
measurement: 96.5
//
molecule: C=CC(C)(O)CCC=C(C)C (configuration not stated)
system-name: U2OS
value-unit: %
measurement: 95.7
//
molecule: O=C(CN1CCN(Cc2ccc3c(c2)OCO3)CC1)N1c2ccccc2Sc2ccccc21
system-name: U2OS
value-unit: %
measurement: 97.2
//
molecule: OCc1c[nH]c2ccccc12
system-name: U2OS
value-unit: %
measurement: 101

Asked: Which cell viability value is on record for CCc1c(C(=O)Nc2cc(S(=O)(=O)N(CC)CC)ccc2O)[nH]c(C)c1C(C)=O ?
Given back: 93

Asked: Consider next the molecule O=C(NCc1ccccn1)Nc1nnc(-c2ccco2)o1 in the same way.
Given back: 101

Asked: Field entry: CN(C)CCCCC(=O)Nc1ccc(NC(=S)NC(=O)c2ccc(C(C)(C)C)cc2)cc1
Given back: 97.9

Asked: Then this molecule: Cc1nn(C)c2c1C(c1cccc(Cl)c1)=NCCN2
Given back: 105

Asked: And what about the molecule CCC[C@H](NC(=O)/C(C#N)=C/c1cccc(Br)n1)c1ccccc1 ?
Given back: 108

Asked: Another molecule: O=C(O)c1ccc2[nH]cc(CCCCN3CC=C(c4ccccc4)CC3)c2c1
Given back: 99

Asked: What about this molecule? Clc1cccc(Cl)c1NC1=NCCN1
Given back: 103

Asked: Then this molecule: CC(C)C1=C2[C@H]3CC[C@@H]4[C@@]5(C)CC[C@H](OC(=O)CC(C)(C)C(=O)O)C(C)(C)[C@@H]5CC[C@@]4(C)[C@]3(C)CC[C@@]2([C@@H](O)CN(CCN(C)C)Cc2ccc(Cl)cc2)CC1=O
Given back: 97.8

Asked: Further, for CC(=O)c1ccc(NS(C)(=O)=O)c(Oc2ccc(F)cc2F)c1 ?
Given back: 98.1

###

# Tested on: Caco-2
# test-method-notes: cell viability relative to DMSO; higher = less toxic
# condition-notes: 72 h; 10000 nM
Under this convention, class 1 denotes cell viability strictly below 90% and class 0 denotes cell viability at or above 90%.

molecule: c1ccc(CNc2ncnc3[nH]cnc23)cc1
cat: class 0
//
molecule: CCC(=O)O[C@H](CC(=O)O)C[N+](C)(C)C [levocarnitine-propionate]
cat: class 0
//
molecule: COc1ccc(CCO[C@@H]2CCCC[C@H]2N2CC[C@@H](O)C2)cc1OC
cat: class 0

Asked: Given Cc1nc2ccccc2c(-c2ccc3c4c(ccnc24)CCO3)c1[C@H](OC(C)(C)C)C(=O)O , is recorded cell viability strictly lower than 90%?
Given back: class 0
